testName: Plasma clearance in monkey at 5 mg/kg, iv
Assay type: ADME, organism-based, Macaca mulatta
Parameters: dose 5 mg/kg, route intravenous
studyConditions: rhesus monkey
recordedEndpoint: clearance (mL/min/kg)
Give the value in mL/min/kg but do not write mL/min/kg after it.

Retrieve clearance measured for CC(C)CC[C@@]1(C)C(=O)C(C2=NS(=O)(=O)c3cc(NS(C)(=O)=O)ccc3N2)=C([O-])c2ccccc21.[Na+] and print it.
8.5

Retrieve clearance measured for CC(C)(C)CC[C@@]1(C)C(=O)C(C2=NS(=O)(=O)c3cc(NS(C)(=O)=O)ccc3N2)=C([O-])c2ccccc21.[Na+] and print it.
9.33

* * *

testName: Elimination half life in monkey at 5 mg/kg, po
Assay type: ADME, organism-based, Macaca mulatta
Parameters: dose 5 mg/kg, route oral
studyConditions: rhesus monkey, in vivo, read-out: beta t1/2 (converted)
recordedEndpoint: half-life
Respond with the figure and its unit, in that order.

Retrieve half-life measured for CC(C)(C)CC[C@@]1(C)C(=O)C(C2=NS(=O)(=O)c3cc(NS(C)(=O)=O)ccc3N2)=C([O-])c2ccccc21.[Na+] and print it.
2 h

* * *

Assign pIC50 to each entry below.
testName: Inhibition of HCV isolate BK NS5B polymerase after 3 hrs by scintillation counting
# pIC50: negative log10 of molar concentration; output just the value

Retrieve pIC50 measured for CC(C)(C)CC[C@@]1(C)C(=O)C(C2=NS(=O)(=O)c3cc(NS(C)(=O)=O)ccc3N2)=C([O-])c2ccccc21.[Na+] and print it.
9.22

Retrieve pIC50 measured for CC(C)CC[C@]1(C)C(=O)C(C2=NS(=O)(=O)c3cc(NS(C)(=O)=O)ccc3N2)=C(O)c2ccccc21 and print it.
5.64

Retrieve pIC50 measured for CC(C)CC[C@@]1(C)C(=O)C(C2=NS(=O)(=O)c3cc(NS(C)(=O)=O)ccc3N2)=C([O-])c2ccccc21.[Na+] and print it.
9.05

Retrieve pIC50 measured for CC(C)(C)CC[C@]1(C)C(=O)C(C2=NS(=O)(=O)c3cc(NS(C)(=O)=O)ccc3N2)=C(O)c2ccccc21 and print it.
6.29

* * *

testName: Tmax in dog at 2.5 mg/kg, po
Assay type: ADME, organism-based, Canis lupus familiaris
Design: dose 2.5 mg/kg, route oral
studyConditions: in vivo
recordedEndpoint: Tmax (h)
Give the value in h but do not write h after it.

Retrieve Tmax measured for CC(C)(C)CC[C@@]1(C)C(=O)C(C2=NS(=O)(=O)c3cc(NS(C)(=O)=O)ccc3N2)=C([O-])c2ccccc21.[Na+] and print it.
2.2

* * *

testName: Tmax in rat at 5 mg/kg, po
Assay type: ADME, organism-based
Set-up: dose 5 mg/kg, route oral
studyConditions: in vivo
recordedEndpoint: Tmax (h)
Give the value in h but do not write h after it.

Retrieve Tmax measured for CC(C)(C)CC[C@@]1(C)C(=O)C(C2=NS(=O)(=O)c3cc(NS(C)(=O)=O)ccc3N2)=C([O-])c2ccccc21.[Na+] and print it.
9

* * *

testName: Drug level in rat liver at 5 mg/kg, po after 6 hrs
Assay type: ADME, organism-based
Set-up: dose 5 mg/kg, route oral
studyConditions: read-out: Drug uptake
Assign concentration at 6 h to each entry below.
Give the value in ng/g but do not write ng/g after it.

Retrieve concentration at 6 h measured for CC(C)(C)CC[C@@]1(C)C(=O)C(C2=NS(=O)(=O)c3cc(NS(C)(=O)=O)ccc3N2)=C(O)c2ccccc21 and print it.
21800

Retrieve concentration at 6 h measured for CC(C)(C)CC[C@@]1(C)C(=O)C(C2=NS(=O)(=O)c3cc(NS(C)(=O)=O)ccc3N2)=C([O-])c2ccccc21.[Na+] and print it.
21800

Retrieve concentration at 6 h measured for CC(C)CC[C@@]1(C)C(=O)C(C2=NS(=O)(=O)c3cc(NS(C)(=O)=O)ccc3N2)=C(O)c2ccccc21 and print it.
3800

Retrieve concentration at 6 h measured for CC(C)CC[C@@]1(C)C(=O)C(C2=NS(=O)(=O)c3cc(NS(C)(=O)=O)ccc3N2)=C([O-])c2ccccc21.[Na+] and print it.
3800
